- TEST_DETAILS: Elimination half life in Sprague-Dawley rat at 2.5 mg/kg, po
- Assay type: ADME, organism-based
- Parameters: dose 2.5 mg/kg, route oral
- CONDITION_DESCRIPTION: in vivo, read-out: beta t1/2 (converted)
READOUT_KIND: half-life (min)
Please reply with the bare figure in min and do not write the unit itself.

Reported half-life for "CCS(=O)(=O)Nc1cccc(-c2cc(=O)n(-c3ccc(Cl)c(Cl)c3)nc2C)c1" was 1300

###

- TEST_DETAILS: AUC (0 to infinity) in Sprague-Dawley rat at 2.5 mg/kg, iv
- Format: ADME, organism-based
- Design: time infinity, dose 2.5 mg/kg, route intravenous
- CONDITION_DESCRIPTION: plasma
READOUT_KIND: AUC(0-inf) (ng·h/mL)
Please reply with the bare figure in ng·h/mL and do not write the unit itself.

Reported AUC(0-inf) for "CCS(=O)(=O)Nc1cccc(-c2cc(=O)n(-c3ccc(Cl)c(Cl)c3)nc2C)c1" was 29800

###

- TEST_DETAILS: Octanol-water partition coefficient, log P of the compound by pH-metric method
- Format: physicochemical
READOUT_KIND: logP
Form: value (number only, do not type unit).

Reported logP for "CCS(=O)(=O)Nc1cccc(-c2cc(=O)n(-c3ccc(Cl)c(Cl)c3)nc2C)c1" was 3.82

###

- TEST_DETAILS: Cmax in Sprague-Dawley rat at 2.5 mg/kg, po
- Assay type: ADME, organism-based
- Design: dose 2.5 mg/kg, route oral
- CONDITION_DESCRIPTION: in vivo
READOUT_KIND: Cmax (ng/mL)
Please reply with the bare figure in ng/mL and do not write the unit itself.

Reported Cmax for "CCS(=O)(=O)Nc1cccc(-c2cc(=O)n(-c3ccc(Cl)c(Cl)c3)nc2C)c1" was 767
